Recorded values, source patent US10508109B2.

- target_or_system: SUV39H2 (Homo sapiens (Human))
- Sequence (Q9H5I1 whole entry): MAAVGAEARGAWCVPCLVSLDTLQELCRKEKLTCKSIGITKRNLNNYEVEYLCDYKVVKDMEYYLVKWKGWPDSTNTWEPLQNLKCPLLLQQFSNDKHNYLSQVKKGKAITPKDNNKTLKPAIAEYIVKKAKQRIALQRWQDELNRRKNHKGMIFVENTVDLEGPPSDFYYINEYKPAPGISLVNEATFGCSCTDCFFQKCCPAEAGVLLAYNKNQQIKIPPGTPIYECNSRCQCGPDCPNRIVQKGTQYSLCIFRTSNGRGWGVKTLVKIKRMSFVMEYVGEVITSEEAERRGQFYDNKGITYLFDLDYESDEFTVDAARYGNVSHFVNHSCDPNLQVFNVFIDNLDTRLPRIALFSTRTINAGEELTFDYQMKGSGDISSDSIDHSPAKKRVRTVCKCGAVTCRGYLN
- condition_details: read-out: IC50 (μM) Suv 39H2 assay; enzyme assay
Could you please report measured IC50 for the items listed next?
Respond with the bare value in µM.

IC50 lookup needed for COc1cc(OC)c(-c2cn3ccc(N4CCN(c5ncccc5C#N)CC4)cc3n2)cc1Cl [Example 283] , thanks. 0.0141

Same for CCS(=O)(=O)NC1CCN(c2ccn3cc(-c4cc(Cl)c(OC)cc4OC)nc3c2)CC1 [Example 173] 0.00961

Same for COc1cc(OC)c(-c2cn3ccc(N4CCC(CNS(=O)(=O)C5CC5)CC4)cc3n2)cc1Cl [Example 149] 0.00672

Same for COc1cc(C)c(-c2cn3ccc(N4CCN(S(=O)(=O)C5CC5)C(COCCN(C)C)C4)cc3n2)cc1Cl (stereo not shown) [Example 264] 0.07

---

Could you please report measured IC50 for the items listed next?
- System: CCD-18Co
- method_description: Cell-based assay, anti-proliferative activity (Cell Counting Kit-8, 72 hours)
- condition_details: Homo sapiens; CCD-18Co cells, Cell Counting Kit-8, 72 hours; read-out: IC50 (μM) CCD-18Co
Structures can show the parent of a compound that is named as a salt.
Your reply should be a number followed by the unit it is expressed in.

IC50 lookup needed for COc1cc(OC)c(-c2cn3ccc(N4CCC[C@@H](N)C4)cc3n2)cc1Cl [Example 30, dihydrochloride] , thanks. 3.9 µM

Same for COc1cc(OC)c(-c2cn3ccc(C4CCC(N)CC4)cc3n2)cc1Cl (centres unmarked) [Example 125] 2.9 µM

Same for COc1cc(OC)c(-c2cn3ccc(NC(=O)CCN)cc3n2)cc1Cl [Example 168] 9.5 µM

Same for CCOP(=O)(CCN1CCN(c2ccn3cc(-c4cc(Cl)c(OC)cc4OC)nc3c2)CC1)OCC [Example 202] 5.6 µM

Same for COc1cc(OC)c(-c2cn3ccc(N4CCNC4=O)cc3n2)cc1Cl [Example 138] 2.2 µM

Same for COc1cc(OC)c(-c2cn3ccc(N4CCC(NC(=O)OC(C)(C)C)C4)nc3n2)cc1Cl (centres unmarked) [Example 26] 7.9 µM

Same for COc1cc(OC)c(-c2cn3ccc(NC(=O)CNC(=O)OC(C)(C)C)cc3n2)cc1Cl [Example 161] 7.8 µM

Same for COc1cc(OC)c(-c2cn3ccc(N4CCN(S(=O)(=O)C5CC5)CC4)cc3n2)cc1Cl [Example 103] 1.6 µM

Same for COc1cc(OC)c(-c2cn3ccc(N4CCOCC4)cc3n2)cc1C [Example 86] 13 µM

Same for CCS(=O)(=O)N1CCN(c2ccn3cc(-c4cc(Cl)c(OC)cc4OC)nc3c2)CC1 [Example 172] 1.8 µM

Same for COC(=O)N1CCN(c2ccn3cc(-c4cc(Cl)c(OC)cc4OC)nc3n2)CC1 [Example 159] 3.7 µM

Same for COc1cc(OC)c(-c2cn3ccc(N)cc3n2)cc1Cl [Example 151] 2.4 µM

Same for CCOP(=O)(CCN1CCCN(c2ccn3cc(-c4cc(Cl)c(OC)cc4OC)nc3c2)CC1)OCC [Example 210] 5.5 µM

Same for CCCS(=O)(=O)NC1CCN(c2ccn3cc(-c4cc(Cl)c(OC)cc4OC)nc3n2)CC1 [Example 193] 10 µM

Same for COc1cc(OC)c(-c2cn3ccc(N4CCN(CCN5CCCCC5)CC4)cc3n2)cc1Cl [Example 135] 2.8 µM

Same for COc1cc(OCCCN(C)C)c(-c2cn3ccc(N4CCN(S(=O)(=O)C5CC5)CC4)cc3n2)cc1Cl [Example 160] 2.9 µM

Same for COCCCN1CCN(c2ccn3cc(-c4cc(Cl)c(OC)cc4OC)nc3c2)CC1 [Example 96] 6.8 µM
